- Test system: MOLT-4 leukemia
- measurementProtocol: NCI-60 one-dose screen, 48 h (100 = growth as untreated, 0 = no growth, -100 = all killed)
- experimentalSetup: 10 µM unless noted
About 83,000 compounds went through this panel and 20% of them were active in at least one assay; those are over-represented in the sample as a whole.
Satisfied means recorded growth is 30% or above; Not satisfied means it is below 30%.

Study these solved cases before continuing.
1) Fc1ccc(Cn2cc(CSc3nc4ccccc4o3)nn2)cc1 ... Satisfied
2) COc1ccc(C2CC(c3cc(OC)c(OC)c(OC)c3)=NO2)cc1OCCCCOc1cc2c(cc1OC)C(=O)N1CCC[C@H]1C=N2 (some centres undefined) ... Not satisfied
3) NC(=O)c1c(NC(=O)c2cccs2)sc2c1CCC(=O)C2 ... Not satisfied
4) O=C1/C(=C/c2ccccc2F)CN(C(=O)C(Cl)Cl)C/C1=C\c1ccccc1F ... Not satisfied
5) CC(=O)Oc1ccc(OC(C)=O)c2ccccc12 ... Not satisfied
6) COc1cc2nc3sc(C(=O)Nc4ccc(C(=O)OC(C)C)cc4)c(C(=O)Nc4ccc(Cl)cc4C)n3c(=O)c2cc1OC ... Satisfied

Alright, here's another molecule for you.
Hi team, for "COc1ccc(/C=C/C(=O)c2cc3c(N)c(C(=O)Nc4cccc(Cl)c4C)sc3nc2C)cc1" , is the recorded growth at or above 30%?
Not satisfied

====

- Tested on: A498 renal
- measurementProtocol: NCI-60 one-dose screen, 48 h (100 = growth as untreated, 0 = no growth, -100 = all killed)
- experimentalSetup: 10 µM unless noted
This is part of a sample that, as a whole, favours compounds with a hit. Of some 83,000 tested, about 20% had one in any assay.
endpointLabel: growth (%)
Answers are plain numbers, in %.

Some entries whose results are on file:
1) COc1cnc2c(c1)C(=O)c1c-2n(CCCCl)c(=O)c2ccncc12 ... 73.2
2) O=C(CSc1nnc(-c2cc(-c3ccccc3)nc3ccccc23)n1-c1ccccc1)Nc1ccc(C(=O)/C=C/c2ccc(Cl)cc2)cc1 ... 81.5
3) CN1CCN(Cc2ccc(NC(=O)c3cncc(C#Cc4cnc(N)c5ccc(F)cc45)c3)cc2C(F)(F)F)CC1 ... 25
4) CC1(C)N=C(N)N=C(N)N1c1cccc(CCc2ccccc2)c1 ... 82.7
5) S=C(c1ccc2c(c1)OCO2)N1CCN(c2cccc(Cl)c2)CC1 ... 33.3

Batch request: growth per item, same order as input.
1. Oc1c(CN2CCOCC2)cc(COCc2ccccc2)c2cccnc12
2. C=C1C(=O)O[C@H]2[C@H]1CC/C(COC(=O)c1cc3cc(Cl)ccc3[nH]1)=C\CC[C@@]1(C)O[C@@H]21
3. CC1=C2[C@@H](CC1)[C@]1(C)O[C@@](c3ccccc3)(C[C@H]1OC(=O)CO)[C@H]2OC(=O)/C=C/c1ccccc1
4. COc1cc(OC)c2sc(-c3ccc(-n4cncc4-c4cc(OC)c(OC)c(OC)c4)cc3)nc2c1
5. CCOC(=O)c1c(C)nc2ccccc2c1/C=C/c1ccccc1
6. CCCCCN(CCCCC)CC(O)c1cc(C)c2ccc3cc(C(C)C)ccc3c2c1 (centres undefined)

1. 49.7
2. -11.9
3. -78.1
4. 48.5
5. 76
6. 19.5

Parameters: items (list). Returns: growth for each item.
1. O=C(/C=C/c1ccc(Cl)cc1)c1cccc(OCCCOc2cccc(C(=O)/C=C/c3ccc(Cl)cc3)c2)c1
2. Nc1ncnc2c1N=C(c1ccc3c(c1)OCO3)CC(c1cccc(Nc3ccnc4cc(C(F)(F)F)ccc34)c1)N2 (centres undefined)
3. C=C(c1ccc(OC)c(/C=C/C(=O)c2ccc3c(c2)OCO3)c1)c1cc(OC)c(OC)c(OC)c1
4. CCc1ccc(CCC(=O)Nc2ncc(Cc3cc(Cl)ccc3Cl)s2)o1
5. N#Cc1cccc(C2C3=C(COC3=O)N(CCO)c3cc4c(cc32)CCC4)c1 (centres undefined)

1: 94.9; 2: 74.5; 3: 17.7; 4: -0.625; 5: -6.54
